molecules and their reported IC50
# TARGET_DESC: FGFR2 (Homo sapiens (Human), UniProt P21802)
# Sequence (P21802 22-821): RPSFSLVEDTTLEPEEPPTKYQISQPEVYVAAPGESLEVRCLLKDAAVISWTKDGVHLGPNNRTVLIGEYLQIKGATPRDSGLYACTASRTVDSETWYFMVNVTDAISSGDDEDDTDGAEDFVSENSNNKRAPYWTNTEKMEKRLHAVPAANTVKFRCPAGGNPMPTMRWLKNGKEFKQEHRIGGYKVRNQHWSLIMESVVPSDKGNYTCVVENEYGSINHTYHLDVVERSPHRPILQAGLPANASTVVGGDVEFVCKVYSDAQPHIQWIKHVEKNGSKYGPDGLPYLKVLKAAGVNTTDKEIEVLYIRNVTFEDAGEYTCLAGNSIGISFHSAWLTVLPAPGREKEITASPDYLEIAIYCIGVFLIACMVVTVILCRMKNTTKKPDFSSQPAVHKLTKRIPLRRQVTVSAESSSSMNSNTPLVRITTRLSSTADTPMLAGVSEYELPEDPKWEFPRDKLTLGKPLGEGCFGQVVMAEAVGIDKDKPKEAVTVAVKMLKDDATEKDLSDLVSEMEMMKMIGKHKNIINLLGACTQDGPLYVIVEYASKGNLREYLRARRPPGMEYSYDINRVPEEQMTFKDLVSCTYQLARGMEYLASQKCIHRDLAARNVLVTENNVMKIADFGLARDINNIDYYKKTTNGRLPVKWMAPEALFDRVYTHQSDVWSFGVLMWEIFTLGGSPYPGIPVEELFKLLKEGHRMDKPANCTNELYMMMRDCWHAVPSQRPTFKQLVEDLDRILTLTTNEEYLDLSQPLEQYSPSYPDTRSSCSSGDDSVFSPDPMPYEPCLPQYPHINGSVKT
# TEST: FGFR2 Biochemical Caliper Assay
MEASURED_METRIC: IC50

• C=C(C)C(=O)Nc1ccc(-c2c(-c3ccc(-n4cc(C)cn4)nc3)c3c(N)ncnc3n2C)cc1 = 0.25 to 1 µM
• C=C(C)C(=O)Nc1ccc(-c2c(-c3ccc(C(=O)N4CC5(CCO5)C4)cc3)c3c(N)ncnc3n2C)cc1 = 1 to 100 µM
• C=C(C)C(=O)Nc1ccc(-c2c(-c3cnn(Cc4ccncc4)c3)c3c(N)ncnc3n2C)cc1 = 1 to 100 µM
• C=CC(=O)N1CCC(c2c(-c3ccccc3)c3c(N)ncnc3n2C)C1 (stereo not shown) = 1 to 100 µM

----------
# TARGET_DESC: FGFR2 (Homo sapiens (Human))
# TEST: FGFR2 Biochemical Caliper Assay
pIC50: −log10 of the molar value.
MEASURED_METRIC: pIC50

- C=C(C)C(=O)Nc1ccc(-c2c(-c3ccc(Oc4nccc(C)n4)c(F)c3)c3c(N)ncnc3n2C)c(OC)c1: > 7.00
- C=C(C)C(=O)Nc1ccc(-c2c(-c3ccc(CN(C)C(C)=O)cc3)c3c(N)ncnc3n2C)cc1: 4.00 to 6.00
- C=C(C)C(=O)Nc1ccc(-c2c(-c3ccc(Oc4nccc(C)n4)c(OC)c3)c3c(N)ncnc3n2C)c(F)c1: > 7.00
- C=C(C)C(=O)Nc1ccc(-c2c(-c3ccc4c(c3)C(C)N(C)C4=O)c3c(N)ncnc3n2C)cc1 (stereo not shown): 4.00 to 6.00
- C/C=C/C(=O)N1CCC(n2cc(-c3c(-c4ccc(Oc5cccc(C)n5)cc4)c4c(N)ncnc4n3C)cn2)C1 (stereo not shown): > 7.00
- C=C(C)C(=O)Nc1ccc(-c2c(C3=CC[C@H](C(=O)N4CC5CC5C4)CC3)c3c(N)ncnc3n2C)cc1 (stereo partly shown): 4.00 to 6.00
- C=CC(=O)N1CCCC(c2c(-c3ccc(Oc4cccc(C)n4)cc3)c3c(N)ncnc3n2C)C1 (stereo not shown): 6.00 to 6.60

----------
# TARGET_DESC: FGFR2 (Homo sapiens (Human))
# TEST: FGFR2 Biochemical Caliper Assay
Measured IC50 of individual entries
MEASURED_METRIC: IC50

* C=CC(=O)N1CCCC(c2c(-c3ccc(Oc4cccc(C)n4)c(OC)c3)c3c(N)ncnc3n2C)C1 (stereo not shown) | 1 to 100 µM
* C=CC(=O)N1CCC(c2c(-c3ccc(OC4CC4)cc3)c3c(N)ncnc3n2C)C1 (stereo not shown) | 0.1 to 0.25 µM
* Cn1c(-c2ccc(NC(=O)CCl)cc2)c(-c2ccc(C(=O)N3CCCC3)cc2)c2c(N)ncnc21 | < 0.1 µM
* C=C(C)C(=O)Nc1ccc(-c2c(-c3cncc(CO)c3)c3c(N)ncnc3n2C)cc1 | 1 to 100 µM

----------
# TARGET_DESC: FGFR2 (Homo sapiens (Human))
# TEST: FGFR2 Biochemical Caliper Assay
MEASURED_METRIC: IC50

- C=C(C)C(=O)Nc1ccc(-c2c(-c3ccc(Oc4nccc(C)n4)c(COC)c3)c3c(N)ncnc3n2C)cc1: 1000 to 100000 nM
- C=C(C)C(=O)Nc1ccc(-c2c(-c3ccc(Oc4ncc(F)cn4)c(C)c3)c3c(N)ncnc3n2C)cc1: 100 to 250 nM
- C=CC(=O)Nc1ccc(-c2c(C3=CCC(NC(C)=O)CC3)c3c(N)ncnc3n2C)cc1 (stereo not drawn): 100 to 250 nM
- C=C(C)C(=O)Nc1ccc(-c2c(-c3ccc4c(c3)CCN4C(=O)NC)c3c(N)ncnc3n2C)cc1: 250 to 1000 nM
- C=C(C)C(=O)Nc1ccc(-c2c(-c3ccc(Oc4cccc(C)n4)c(F)c3)c3c(N)ncnc3n2C)cc1: < 100 nM
- C=CC(=O)N1CC=C(c2c(-c3ccc(Oc4ccc(C)cn4)c(OC)c3)c3c(N)ncnc3n2C)CC1: < 100 nM
- C=C(C)C(=O)Nc1ccc(-c2c(-c3ccc(C(=O)N(C)CC(C)(C)O)cc3)c3c(N)ncnc3n2C)cc1: 250 to 1000 nM
- C=C(C)C(=O)Nc1ccc(-c2[nH]c3ncnc(N)c3c2-c2ccc(Oc3cccc(C)n3)c(OCC)c2)cc1: < 100 nM
- C=C(C)C(=O)Nc1ccc(-c2c(-c3ccc(C(=O)N4CCCC4)cc3)c3c(N)ncnc3n2C)cc1C: 1000 to 100000 nM
- C=C(C)C(=O)Nc1ccc(-c2c(-c3ccc(C(=O)N(C)CCO)cc3)c3c(N)ncnc3n2C)cc1: 250 to 1000 nM
- C=C(C)C(=O)Nc1ccc(-c2c(-c3ccc(C(=O)N(C)CC4(C#N)CC4)cc3)c3c(N)ncnc3n2C)c(F)c1: < 100 nM
- C=CC(=O)N[C@H]1C[C@H](n2cc(-c3c(-c4ccc(Oc5ccccc5)cc4)c4c(N)ncnc4n3C)cn2)C1: < 100 nM
- C=C(C)C(=O)Nc1ccc(-c2c(-c3ccc(C(=O)N(C)Cc4ncno4)cc3)c3c(N)ncnc3n2C)cc1: 1000 to 100000 nM
- C=C(C)C(=O)Nc1ccc(-c2c(-c3ccc(C(=O)N(C)C)cc3)c3c(N)ncnc3n2C)cc1: 250 to 1000 nM
- C=C(C)C(=O)Nc1ccc(-c2c(-c3ccc(Oc4nccc(OC)n4)c(F)c3)c3c(N)ncnc3n2C)cc1: < 100 nM

----------
Listing of entries alongside the reported pIC50.
# TARGET_DESC: FGFR2 (Homo sapiens (Human), UniProt P21802)
# TEST: Biochemical FGFR2 Caliper assay
pIC50: −log10 of the molar value.
MEASURED_METRIC: pIC50

* C=C1CN(c2ccc(-c3c(-c4ccc(Oc5nccc(C)n5)cc4)c4c(N)ncnc4n3C)cc2)C1=O | > 7.00
* C=C(C)C(=O)Nc1ccc(-c2c(C3=CCC(C(=O)N4CCCC4)CC3(F)F)c3c(N)ncnc3n2C)cc1 (stereo not shown) | > 7.00
* C#Cc1nc2cc(-c3c(-c4ccc(Oc5nccc(C)n5)c(F)c4)c4c(C)ncnc4n3C)ccc2[nH]1 | > 7.00
* C=CC(=O)N1C[C@H](c2c(-c3ccc(C(=O)N4CCCCC4)cc3)c3c(N)ncnc3n2C)C[C@@H]1C (single isomer, unassigned) | 4.00 to 6.00
* C#Cc1ncc(-c2c(-c3ccc(Oc4nccc(C)n4)cc3)c3c(N)ncnc3n2C)cn1 [Example 1000] | 4.00 to 6.00
* C=C(C)C(=O)Nc1ccc(-c2c(-c3ccc(-c4ccccc4O)nc3)c3c(N)ncnc3n2C)cc1 | 4.00 to 6.00
* C#Cc1cc(C)c(-c2c(C3=CC[C@]4(CC3)Cc3ccc(C)nc3O4)c3c(C)ncnc3n2C)cn1 | 6.00 to 6.60

----------
# TARGET_DESC: FGFR2 (Homo sapiens (Human), UniProt P21802)
# TEST: FGFR2 Biochemical Caliper Assay
Each entry below carries its recorded IC50.
MEASURED_METRIC: IC50

• C=CC(=O)N1CCC(n2cc(-c3c(-c4ccc(Oc5cccc(F)n5)cc4)c4c(N)ncnc4n3C)cn2)CC1 = < 100 nM
• C=CC(=O)N1CCC(n2cc(-c3c(-c4ccc(Oc5ccccc5)cc4Cl)c4c(N)ncnc4n3C)cn2)CC1 = < 100 nM
• C=CC(=O)N1CCC(c2c(-c3ccc(-c4ncc[nH]4)cc3)c3c(N)ncnc3n2C)C1 (stereo not shown) = < 100 nM
• C=C(C)C(=O)Nc1ccc(-c2cn3ncnc(N)c3c2-c2ccc(Oc3cccc(C)n3)cc2)cc1 = 1000 to 100000 nM
• C=CC(=O)N1CCC(c2c(-c3ccc(OC4CNC4)cc3)c3c(N)ncnc3n2C)C1 (stereo not shown) = 1000 to 100000 nM
• C=C(C)C(=O)Nc1ccc(-c2c(-c3ccc(C(=O)N4CCCC4)cc3)c3c(N)ncnc3n2C)c(C2CC2)c1 [Example 478] = 100 to 250 nM
• C=CC(=O)N1CC=C(c2c(-c3ccc(Oc4ccccn4)c(OC)c3)c3c(N)ncnc3n2C)CC1 = < 100 nM

----------
# Test system: SNU-16
# TEST: Cell SNU-16 assay
# Assay type: cell-based
# STUDY_CONDITIONS: Homo sapiens; SNU-16 cells
MEASURED_METRIC: IC50

• C=C(C)C(=O)Nc1ccc(-c2c(-c3ccc(Oc4nccc(C)n4)c(F)c3)c3c(N)ncnc3n2C)cc1 [Example 1028] = ≤ 100 nM

----------
# TARGET_DESC: FGFR2 (Homo sapiens (Human))
# TEST: FGFR2 Biochemical Caliper Assay
IC50 values for the molecules below.
MEASURED_METRIC: IC50

- C=C(C)C(=O)Nc1ccc(-c2c(-c3ccc(C(=O)NC4CC(F)C4)c(OC)c3)c3c(N)ncnc3n2C)cc1 (stereo not shown): < 100 nM
- C=C(C)C(=O)Nc1ccc(-c2c(-c3ccc(C(=O)N4CCC(F)CC4)cc3)c3c(N)ncnc3n2C)cc1: 250 to 1000 nM
- C=C(C)C(=O)Nc1ccc(-c2c(-c3ccc(S(=O)(=O)CCC(F)(F)F)cc3)c3c(N)ncnc3n2C)cc1: 250 to 1000 nM
- C=C(C)C(=O)Nc1ccc(-c2c(-c3ccc(C(=O)N4CCCCC4=O)cc3)c3c(N)ncnc3n2C)cc1: 100 to 250 nM
- C=C(C)C(=O)Nc1ccc(-c2c(-c3ccc(C(=O)N4CCCC5CC54)cc3)c3c(N)ncnc3n2C)cc1 (stereo not shown): < 100 nM
- C=CC(=O)N1CCC(c2c(-c3ccc(NC(=O)NC4CC4)cc3)c3c(N)ncnc3n2C)C1 (stereo not shown): < 100 nM
- C=C(C)C(=O)Nc1ccc(-c2c(-c3ccc(S(=O)(=O)N4CCCC4)cc3)c3c(N)ncnc3n2C)cc1: 100 to 250 nM

All values here come from patent US11780845B2.
